This collection of values is drawn from ChEMBL document CHEMBL1146501.

Tested on: Raji
Experiment: Inhibition of 12-O-tetradecanoylphorbol-13-acetate-induced EBV-early antigen activation in human Raji cells assessed as EA activation at 10 molar ratio after 48 hrs relative to TPA
Format: cell-based
Parameters: scale not given: the % may be the effect or the level left
Conditions: human gammaherpesvirus 4
Observable: Activity (%)
Give a bare numeral; the unit % is implied.

Lookup: // query Activity value for entry C=C1C[C@@]23CC[C@H]4[C@@](C)(CCC[C@@]4(C)C(=O)O[C@@H]4O[C@H](CO)[C@@H](O)[C@H](O)[C@H]4O)[C@@H]2CC[C@]1(O[C@@H]1O[C@H](CO)[C@@H](O)[C@H](O)[C@H]1O[C@@H]1O[C@H](CO)[C@@H](O)[C@H](O)[C@H]1O)C3 [STEVIOSIDE]
Found: 100

Lookup: // query Activity value for entry C[C@@]12CC[C@@H]3[C@@](CC1=O)(C2)C(=O)C[C@H]1[C@@]3(C)CCC[C@@]1(C)C(=O)O
Found: 94.5

Lookup: // query Activity value for entry C[C@@]12CCC[C@@](C)(C(=O)O)[C@H]1CC[C@@]13CC(=O)[C@@](CO)(CC[C@H]12)C3
Found: 95.7

Lookup: // query Activity value for entry CC1=C(/C=C/C(C)=C/C=C/C(C)=C/C=C/C=C(C)/C=C/C=C(C)/C=C/C2=C(C)CCCC2(C)C)C(C)(C)CCC1
Found: 100
